Where these numbers come from: patent US20260116991A1

# OD450 nm per record follows
ASSAY_SYSTEM: monkey GPC3-His protein (monkey)
RUN_DESCRIPTION: ELISA, monkey GPC3-His coated; antibody 0.004 nM
READOUT_KIND: OD450 nm

- BINDER: "hAb005LH3L1 (antibody, human IgG1, V domains shown) VH: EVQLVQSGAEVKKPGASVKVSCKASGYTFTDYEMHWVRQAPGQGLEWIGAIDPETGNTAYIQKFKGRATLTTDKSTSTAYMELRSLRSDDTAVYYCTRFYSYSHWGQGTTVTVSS VL: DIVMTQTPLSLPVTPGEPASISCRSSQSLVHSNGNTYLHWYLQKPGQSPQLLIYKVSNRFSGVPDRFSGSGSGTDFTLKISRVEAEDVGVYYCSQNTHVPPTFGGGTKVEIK"
  READOUT_KIND: "OD450 nm"
  REPORTED: 0.226
- BINDER: "hAb005LH1L1a (antibody, human IgG1, V domains shown) VH: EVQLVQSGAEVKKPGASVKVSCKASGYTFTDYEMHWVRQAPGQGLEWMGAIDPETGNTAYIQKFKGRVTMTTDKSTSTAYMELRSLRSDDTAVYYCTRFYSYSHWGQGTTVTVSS VL: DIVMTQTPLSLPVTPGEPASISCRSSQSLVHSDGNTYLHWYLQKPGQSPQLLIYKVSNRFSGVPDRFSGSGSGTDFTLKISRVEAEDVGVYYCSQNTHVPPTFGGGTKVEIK"
  READOUT_KIND: "OD450 nm"
  REPORTED: 0.045
- BINDER: "hAb005LH2L1 (antibody, human IgG1, V domains shown) VH: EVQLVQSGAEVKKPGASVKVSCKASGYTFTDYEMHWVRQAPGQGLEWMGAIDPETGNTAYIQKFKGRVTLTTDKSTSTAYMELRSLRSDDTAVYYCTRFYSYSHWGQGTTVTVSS VL: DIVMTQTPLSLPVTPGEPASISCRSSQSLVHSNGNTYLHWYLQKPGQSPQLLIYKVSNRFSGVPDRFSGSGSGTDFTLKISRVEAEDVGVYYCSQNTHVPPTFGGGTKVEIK"
  READOUT_KIND: "OD450 nm"
  REPORTED: 0.222
- BINDER: "hAb007LH1L1a (antibody, human IgG1, V domains shown) VH: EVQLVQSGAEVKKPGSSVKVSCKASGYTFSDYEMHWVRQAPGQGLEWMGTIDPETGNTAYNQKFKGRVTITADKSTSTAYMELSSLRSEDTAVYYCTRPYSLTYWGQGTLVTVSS VL: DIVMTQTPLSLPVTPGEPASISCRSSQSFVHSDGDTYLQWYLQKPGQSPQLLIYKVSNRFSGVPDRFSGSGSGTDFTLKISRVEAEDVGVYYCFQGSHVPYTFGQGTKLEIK"
  READOUT_KIND: "OD450 nm"
  REPORTED: 0.097
- BINDER: "hAb007LH3L1 (antibody, human IgG1, V domains shown) VH: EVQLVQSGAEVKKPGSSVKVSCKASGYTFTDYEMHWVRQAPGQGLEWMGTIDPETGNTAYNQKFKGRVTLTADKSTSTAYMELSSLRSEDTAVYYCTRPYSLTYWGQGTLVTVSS VL: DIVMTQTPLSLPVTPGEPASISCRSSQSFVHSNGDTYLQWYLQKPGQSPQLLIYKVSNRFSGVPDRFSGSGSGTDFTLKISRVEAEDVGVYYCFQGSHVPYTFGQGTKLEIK"
  READOUT_KIND: "OD450 nm"
  REPORTED: 0.198
- BINDER: "hAb006LH2L1b (antibody, human IgG1, V domains shown) VH: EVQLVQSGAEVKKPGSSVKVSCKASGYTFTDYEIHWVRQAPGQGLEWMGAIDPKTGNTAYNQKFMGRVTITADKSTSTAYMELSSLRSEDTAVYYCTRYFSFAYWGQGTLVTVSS VL: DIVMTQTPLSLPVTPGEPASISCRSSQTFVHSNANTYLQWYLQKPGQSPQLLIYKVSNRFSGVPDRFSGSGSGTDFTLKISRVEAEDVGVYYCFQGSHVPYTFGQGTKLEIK"
  READOUT_KIND: "OD450 nm"
  REPORTED: 0.34
- BINDER: "hAb006LH3L1 (antibody, human IgG1, V domains shown) VH: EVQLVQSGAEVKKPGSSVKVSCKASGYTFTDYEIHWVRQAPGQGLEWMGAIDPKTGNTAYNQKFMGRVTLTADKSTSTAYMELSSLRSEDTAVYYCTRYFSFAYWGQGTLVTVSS VL: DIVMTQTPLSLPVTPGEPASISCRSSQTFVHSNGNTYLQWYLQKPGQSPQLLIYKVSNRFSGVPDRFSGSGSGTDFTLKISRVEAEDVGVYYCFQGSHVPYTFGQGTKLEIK"
  READOUT_KIND: "OD450 nm"
  REPORTED: 0.294
- BINDER: "hAb006LH1L1 (antibody, human IgG1, V domains shown) VH: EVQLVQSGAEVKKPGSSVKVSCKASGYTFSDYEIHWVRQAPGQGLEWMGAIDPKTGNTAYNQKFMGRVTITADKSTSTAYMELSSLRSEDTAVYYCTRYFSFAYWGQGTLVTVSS VL: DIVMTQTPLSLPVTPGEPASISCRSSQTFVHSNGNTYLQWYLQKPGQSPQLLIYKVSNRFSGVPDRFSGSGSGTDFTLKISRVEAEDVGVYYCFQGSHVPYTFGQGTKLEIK"
  READOUT_KIND: "OD450 nm"
  REPORTED: 0.369
- BINDER: "hAb007LH1L1 (antibody, human IgG1, V domains shown) VH: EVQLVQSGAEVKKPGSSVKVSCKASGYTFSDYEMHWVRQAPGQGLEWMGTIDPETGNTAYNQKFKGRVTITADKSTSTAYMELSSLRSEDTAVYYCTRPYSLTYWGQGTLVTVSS VL: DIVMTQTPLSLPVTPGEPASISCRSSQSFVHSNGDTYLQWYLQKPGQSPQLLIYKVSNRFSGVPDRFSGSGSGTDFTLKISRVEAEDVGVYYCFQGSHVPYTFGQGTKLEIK"
  READOUT_KIND: "OD450 nm"
  REPORTED: 0.122
- BINDER: "hAb003LH1L1b (antibody, human IgG1, V domains shown) VH: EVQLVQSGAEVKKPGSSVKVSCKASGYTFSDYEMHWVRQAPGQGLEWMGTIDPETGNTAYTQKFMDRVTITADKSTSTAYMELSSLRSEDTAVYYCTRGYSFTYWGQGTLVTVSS VL: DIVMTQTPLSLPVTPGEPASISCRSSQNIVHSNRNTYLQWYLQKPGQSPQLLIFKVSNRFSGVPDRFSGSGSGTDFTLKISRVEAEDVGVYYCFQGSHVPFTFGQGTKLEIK"
  READOUT_KIND: "OD450 nm"
  REPORTED: 0.418
